Target: recombinant human MAO-A (monoamine oxidase-A) (Homo sapiens, UniProt P21397)
Construct: purchased Sigma-Aldrich
Sequence (P21397 whole entry): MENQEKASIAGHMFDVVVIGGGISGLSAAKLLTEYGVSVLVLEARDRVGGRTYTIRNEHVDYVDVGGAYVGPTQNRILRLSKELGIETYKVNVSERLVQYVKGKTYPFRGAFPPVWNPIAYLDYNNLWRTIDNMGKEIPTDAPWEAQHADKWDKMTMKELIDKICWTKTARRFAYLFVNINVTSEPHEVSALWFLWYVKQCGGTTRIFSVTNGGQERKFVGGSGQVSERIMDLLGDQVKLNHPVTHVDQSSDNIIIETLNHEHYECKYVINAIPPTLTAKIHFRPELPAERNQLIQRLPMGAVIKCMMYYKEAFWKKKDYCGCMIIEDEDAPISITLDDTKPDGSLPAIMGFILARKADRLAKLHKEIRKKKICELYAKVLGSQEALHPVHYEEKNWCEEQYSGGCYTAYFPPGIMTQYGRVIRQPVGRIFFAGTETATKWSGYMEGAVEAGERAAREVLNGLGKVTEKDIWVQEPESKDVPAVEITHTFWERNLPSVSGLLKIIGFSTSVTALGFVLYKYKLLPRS
Experiment: Activity on recombinant human MAO-A, Amplex Red method, 0.5 mM tyramine substrate
Format: biochemical
Settings: 0.5 mM tyramine, read-out: Inhibitory Activity (IC50, nM) MAO-A
Counter-ions that a name gives are not always drawn.
Hi there, I'd appreciate the recorded IC50 for every entry that follows.
Give bare numbers, in nM.

Previously resolved entries follow.
[[record]]
molecule = "NC/C(=C/F)Cn1ncn(-c2c(F)cc(Br)cc2F)c1=O [Example 21, hydrochloride]"
experimentalsystem = "recombinant human MAO-A (monoamine oxidase-A) (Homo sapiens, UniProt P21397)"
measuredattribute = "IC50"
units = "nM"
observedvalue = 400

[[record]]
molecule = "NC/C(=C/F)Cn1ncn(-c2cccc(Br)c2)c1=O [Example 3, hydrochloride]"
experimentalsystem = "recombinant human MAO-A (monoamine oxidase-A) (Homo sapiens, UniProt P21397)"
measuredattribute = "IC50"
units = "nM"
observedvalue = 3500

[[record]]
molecule = "Cc1cc(-c2ccc(-c3cnon3)cc2)cnc1-n1cnn(C/C(=C/F)CN)c1=O [Example 138, hydrochloride]"
experimentalsystem = "recombinant human MAO-A (monoamine oxidase-A) (Homo sapiens, UniProt P21397)"
measuredattribute = "IC50"
units = "nM"
observedvalue = 84000

[[record]]
molecule = "Cc1cc(-c2ccc3c(c2)OCO3)cnc1-n1cnn(C/C(=C/F)CN)c1=O [Example 150, hydrochloride]"
experimentalsystem = "recombinant human MAO-A (monoamine oxidase-A) (Homo sapiens, UniProt P21397)"
measuredattribute = "IC50"
units = "nM"
observedvalue = 4800

[[record]]
molecule = "NC/C(=C\\F)Cn1ncn(-c2cccc(-c3ccc4cn[nH]c4c3)c2)c1=O [Example 97, hydrochloride]"
experimentalsystem = "recombinant human MAO-A (monoamine oxidase-A) (Homo sapiens, UniProt P21397)"
measuredattribute = "IC50"
units = "nM"
observedvalue = 22500


For each of the items listed, what is its IC50?
1. CC(C)Sc1ccc(-c2cccc(-n3cnn(C/C(=C/F)CN)c3=O)c2)cc1 [Example 52, hydrochloride]
2. NC/C(=C\F)Cn1ncn(-c2cccc(-c3ccc(-c4ncon4)cc3)c2)c1=O [Example 61]

Response:
50000
62000

For each of the items listed, what is its IC50?
1. Cc1cc(-c2cccc(-c3ncon3)c2)cnc1-n1cnn(C/C(=C/F)CN)c1=O [Example 140]
2. NC/C(=C\F)Cn1ncn(-c2cccc(-c3c[nH]c4ccccc34)c2)c1=O [Example 100, hydrochloride]

Response:
3400
39300

Query: Endpoint output: IC50 of CC(=O)Nc1ccc(-c2ccc(-n3cnn(C/C(=C\F)CN)c3=O)nc2)cc1 [Example 130, hydrochloride] . Value?
Response: 26000
